Cited source for all entries: patent US7446102B2

Measured MIC, listed per entry for reference.
# Test system: E. faecium L4001
# TEST SUMMARY: Determination of the minimum inhibitory concentration (MIC), E. faecium L4001
# Format: cell-based
# CONDITIONS USED: Enterococcus faecium, L4001, read-out: MIC E. faecium L4001
Counter-ions that a name gives are not always drawn.
Give the number; µg/mL is assumed, so skip it.

Previously resolved entries follow.
[
  {
    "COMPOUND": "NCCC[C@@H]1NC(=O)[C@@H](N)Cc2cc(ccc2O)-c2ccc(O)c(c2)C[C@@H](C(=O)N[C@@H](C[C@@H](O)CN)C(=O)NCCN)NC1=O",
    "MIC [µg/mL]": 8
  },
  {
    "COMPOUND": "NCCC[C@H](NC(=O)[C@@H]1Cc2cc(ccc2O)-c2ccc(O)c(c2)C[C@H](N)C(=O)N[C@@H](CCCN)C(=O)N1)C(=O)N[C@@H](CCN)C(=O)NCCN",
    "MIC [µg/mL]": 16
  },
  {
    "COMPOUND": "NC[C@H](O)C[C@@H]1NC(=O)[C@@H](N)Cc2cc(ccc2O)-c2ccc(O)c(c2)C[C@@H](C(=O)O)NC1=O [Example 20A, dihydrochloride, reference compound]",
    "MIC [µg/mL]": 0.5
  }
]

Prompt line: Data request, read-out MIC, for N=C(N)NCCC[C@H](NC(=O)[C@@H]1Cc2cc(ccc2O)-c2ccc(O)c(c2)C[C@H](N)C(=O)N[C@@H](CCCN)C(=O)N1)C(=O)NCCN
Response line: 4
